Numbers sourced from ChEMBL document CHEMBL1145498.

ΔTm, Dual specificity protein kinase CLK1 (Homo sapiens): measured values
Record the value in °C, omitting the unit from your answer.

Some molecules with recorded ΔTm:
* O=Nc1c(-c2c(O)[nH]c3ccccc23)[nH]c2ccccc12 | 4
* CCN(CC)CCNC(=O)c1c(C)[nH]c(/C=C2\C(=O)Nc3ccc(F)cc32)c1C | 5.1
* COc1cc(O)c2c(c1)oc(=O)c1c3cc(O)c(O)cc3oc21 [WEDELOLACTONE] | 2.6
* O=C1Nc2ccc(I)cc2/C1=C1/Nc2ccccc2/C1=N\O | 3.2

## Task Tell me its ΔTm on Dual specificity protein kinase CLK1 (Homo sapiens): NC1=N/C(=C2/CCNC(=O)c3[nH]ccc32)C(=O)N1 [DEBROMOHYMENIALDISINE]
## Result 6

* * *

# tested on: Serine/threonine-protein kinase PAK 4 (Homo sapiens)
So basically: ΔTm at 0.9 °C or higher? That is 1 (yes). Lower than 0.9 °C? That is 0 (no).

• CN(C)CCCn1cc(C2=C(c3c[nH]c4ccccc34)C(=O)NC2=O)c2ccccc21 = 1 (yes)
• Brc1c(Br)c(Br)c2[nH]nnc2c1Br = 0 (no)
• CC(=O)O/N=C1/C(=C2/C(=O)Nc3cc(Br)ccc32)Nc2ccccc21 = 1 (yes)

## Task Does ΔTm meet or surpass 0.9 °C for CN1CCC(Nc2ncc3ncnc(Nc4ccc(F)c(Cl)c4)c3n2)CC1 ?
## Result 1 (yes)

* * *

ΔTm tested on Serine/threonine-protein kinase OSR1 (Homo sapiens): recorded values

Below, 4 compounds whose answers are already recorded.
* CCOC(=O)c1cnc2oc3ccc(O)cc3c2c1-c1ccccc1 | 1.3 °C
* C#Cc1cccc(Nc2ncnc3cc(OCCOC)c(OCCOC)cc23)c1 | 0 °C
* CCN1/C(=C/C(C)=O)Sc2ccc(OC)cc21 | 0.1 °C
* COc1ccc2c(c1)/C(=C/c1cnc[nH]1)C(=O)N2 [SU-9516] | 1.3 °C

Shifting focus to the compound that follows.
## Task Give reported ΔTm value for O=C1Nc2ccccc2/C1=C\c1ccc[nH]1
## Result 2.7 °C

* * *

# tested on: Ribosomal protein S6 kinase alpha-3 (Homo sapiens) (UniProt P51812)
# Sequence (P51812 whole entry): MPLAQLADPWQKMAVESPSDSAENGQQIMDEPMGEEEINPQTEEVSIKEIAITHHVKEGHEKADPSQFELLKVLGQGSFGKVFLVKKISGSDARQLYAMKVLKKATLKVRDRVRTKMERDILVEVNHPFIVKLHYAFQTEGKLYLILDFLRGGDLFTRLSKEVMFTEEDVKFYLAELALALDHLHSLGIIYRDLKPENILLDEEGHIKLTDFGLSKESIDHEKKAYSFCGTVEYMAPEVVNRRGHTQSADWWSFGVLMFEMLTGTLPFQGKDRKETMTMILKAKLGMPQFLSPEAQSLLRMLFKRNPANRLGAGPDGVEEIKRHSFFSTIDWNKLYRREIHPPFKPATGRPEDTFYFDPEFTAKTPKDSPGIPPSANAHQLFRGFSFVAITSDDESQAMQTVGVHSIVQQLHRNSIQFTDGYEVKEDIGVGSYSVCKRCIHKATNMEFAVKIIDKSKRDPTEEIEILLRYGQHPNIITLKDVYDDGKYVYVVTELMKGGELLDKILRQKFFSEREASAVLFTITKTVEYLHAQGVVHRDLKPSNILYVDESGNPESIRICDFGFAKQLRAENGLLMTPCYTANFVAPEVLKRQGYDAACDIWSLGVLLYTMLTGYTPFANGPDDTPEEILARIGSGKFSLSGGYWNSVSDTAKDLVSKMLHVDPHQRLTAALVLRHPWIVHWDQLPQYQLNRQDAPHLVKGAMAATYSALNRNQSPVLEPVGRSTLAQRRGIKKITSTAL
ΔTm less than 2 °C is MET; ΔTm greater than or equal to 2 °C is NOT MET.

Here are 3 molecules together with their reported answers.
• O=C(O)c1cc(N(Cc2ccccc2O)Cc2cc(O)ccc2O)ccc1O = MET
• Cc1cc(Nc2nc(-c3ccccc3)nc3ccccc23)n[nH]1 = NOT MET
• COc1cc(/C=C/C(=O)CC(=O)/C=C/c2ccc(O)c(OC)c2)ccc1O = NOT MET

## Task Is the reported ΔTm for Cc1nc2sccn2c(=O)c1CCN1CCC(=C(c2ccccc2)c2ccc(F)cc2)CC1 strictly below 2 °C?
## Result NOT MET

## Task Below 2 °C on ΔTm? Entry O=c1sn(Cc2ccccc2)c(=S)n1Cc1ccccc1
## Result MET

## Task API: query returns whether the molecule falls strictly under 2 °C in ΔTm. Query: O=C(O)/C=C/c1cc(CO)ccc1CO
## Result MET

## Task is_below(ΔTm, 2 °C) for O=C1NC(=O)C(c2c[nH]c3ccccc23)=C1c1c[nH]c2ccccc12 ?
## Result MET

## Task Item Nc1n[nH]c2nnc(-c3c(-c4ccccc4)nn4ccccc34)cc12 : ΔTm beneath 2 °C, strictly?
## Result MET

## Task Lab log: compare recorded ΔTm with 2 °C; is it strictly lower for Cn1cc(C2=C(c3cn(CCCN)c4ccccc34)C(=O)NC2=O)c2ccccc21 ?
## Result MET

## Task Does COc1nccc(-c2c(-c3ccc(F)cc3)ncn2[C@H]2CC[C@H](O)CC2)n1 have ΔTm strictly under 2 °C?
## Result MET

## Task Could you please tell me whether ΔTm recorded for O=C1Nc2ccc(I)cc2/C1=C\c1cc(Br)c(O)c(Br)c1 is less than 2 °C?
## Result NOT MET

## Task Below 2 °C on ΔTm? Entry CC(C)(C)n1nc(-c2cccc3ccccc23)c2c(N)ncnc21
## Result MET

## Task Criterion: ΔTm strictly below 2 °C. Is it met by Nc1nccc(-c2c(-c3ccc(F)cc3)ncn2C2CCNCC2)n1 ?
## Result MET

* * *

# tested on: Serine/threonine-protein kinase Chk2 (Homo sapiens)
# Sequence (O96017 whole entry): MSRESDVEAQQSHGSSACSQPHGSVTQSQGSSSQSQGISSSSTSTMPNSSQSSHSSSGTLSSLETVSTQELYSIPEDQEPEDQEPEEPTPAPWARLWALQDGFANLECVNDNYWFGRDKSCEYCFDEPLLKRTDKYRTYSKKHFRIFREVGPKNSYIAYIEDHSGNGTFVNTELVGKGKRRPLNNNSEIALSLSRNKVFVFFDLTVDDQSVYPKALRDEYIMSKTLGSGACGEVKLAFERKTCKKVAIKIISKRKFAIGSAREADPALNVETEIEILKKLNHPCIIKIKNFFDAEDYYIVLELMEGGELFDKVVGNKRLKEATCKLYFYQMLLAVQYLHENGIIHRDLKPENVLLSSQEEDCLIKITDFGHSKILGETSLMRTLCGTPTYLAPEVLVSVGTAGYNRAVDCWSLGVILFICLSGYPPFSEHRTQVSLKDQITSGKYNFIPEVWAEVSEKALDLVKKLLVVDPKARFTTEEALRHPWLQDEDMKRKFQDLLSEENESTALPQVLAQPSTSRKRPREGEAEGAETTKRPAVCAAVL
Parameter: ΔTm. Scope: all listed entries.
The response must be a number in °C with no trailing unit.

Please review the entries below; each comes with its answer.
* C#Cc1cccc(Nc2ncnc3cc(OCCOC)c(OCCOC)cc23)c1 | 0.4
* Ic1cccc(CSc2nnc(-c3ccncc3)o2)c1 | -0.9
* O=C1Cc2c([nH]c3ccc([N+](=O)[O-])cc23)-c2ccccc2N1 | 7.8
* COC(=O)[C@]1(O)C[C@@H]2O[C@@]1(C)n1c3ccccc3c3c4c(c5c6ccccc6n2c5c31)C(=O)NC4 (single isomer, unassigned) | 6
* COc1cc(O)c2c(c1)oc(=O)c1c3cc(O)c(O)cc3oc21 | 1.8

## Task Retrieve ΔTm on Serine/threonine-protein kinase Chk2 (Homo sapiens); query Cn1cc(C2=C(c3cn(CCCSC(=N)N)c4ccccc34)C(=O)NC2=O)c2ccccc21
## Result 7

* * *

# tested on: STE20-like serine/threonine-protein kinase (Homo sapiens) (UniProt Q9H2G2)
# Sequence (Q9H2G2 whole entry, looked up): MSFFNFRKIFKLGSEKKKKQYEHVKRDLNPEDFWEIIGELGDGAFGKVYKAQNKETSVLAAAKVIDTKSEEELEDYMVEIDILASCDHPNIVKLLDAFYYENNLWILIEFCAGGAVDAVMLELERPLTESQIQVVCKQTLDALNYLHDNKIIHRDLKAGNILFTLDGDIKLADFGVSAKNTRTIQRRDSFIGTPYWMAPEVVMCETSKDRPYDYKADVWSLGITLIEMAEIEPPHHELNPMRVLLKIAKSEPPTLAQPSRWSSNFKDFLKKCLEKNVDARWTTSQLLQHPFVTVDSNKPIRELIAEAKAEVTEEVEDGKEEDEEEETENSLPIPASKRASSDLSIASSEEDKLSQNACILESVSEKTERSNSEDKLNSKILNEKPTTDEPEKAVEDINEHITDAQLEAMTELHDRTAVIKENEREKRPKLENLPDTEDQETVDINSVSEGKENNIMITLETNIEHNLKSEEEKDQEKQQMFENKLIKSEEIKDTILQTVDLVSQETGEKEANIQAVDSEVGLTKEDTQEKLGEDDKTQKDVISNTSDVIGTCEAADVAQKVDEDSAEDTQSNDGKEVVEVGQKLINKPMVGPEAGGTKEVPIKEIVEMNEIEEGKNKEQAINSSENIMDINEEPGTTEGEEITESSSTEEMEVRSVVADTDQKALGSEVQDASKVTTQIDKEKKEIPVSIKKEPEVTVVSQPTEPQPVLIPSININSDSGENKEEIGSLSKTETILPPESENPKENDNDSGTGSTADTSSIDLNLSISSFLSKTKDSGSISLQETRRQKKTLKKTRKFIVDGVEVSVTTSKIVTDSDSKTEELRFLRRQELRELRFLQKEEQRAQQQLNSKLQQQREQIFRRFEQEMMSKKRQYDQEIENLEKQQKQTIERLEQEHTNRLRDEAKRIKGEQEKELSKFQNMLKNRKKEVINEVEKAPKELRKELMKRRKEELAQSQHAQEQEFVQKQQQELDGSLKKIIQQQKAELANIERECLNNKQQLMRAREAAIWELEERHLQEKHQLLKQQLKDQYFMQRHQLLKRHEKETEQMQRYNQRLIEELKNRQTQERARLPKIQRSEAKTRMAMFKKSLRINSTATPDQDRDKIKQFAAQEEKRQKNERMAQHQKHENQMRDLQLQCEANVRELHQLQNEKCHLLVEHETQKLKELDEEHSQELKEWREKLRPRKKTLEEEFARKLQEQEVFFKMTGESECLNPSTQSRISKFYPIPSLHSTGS
Just so you know, the groups by ΔTm go like this: bottom range: < 0.8 °C; center range: ≥ 0.8 °C and < 3 °C; top range: ≥ 3 °C

- O=C1c2ccccc2-c2n[nH]c3cccc1c23: center range
- N#CCCc1ccc2c(c1)-c1[nH]c3ccc([N+](=O)[O-])cc3c1CC(=O)N2 [ALSTERPAULLONE 2]: center range
- CC(C)N(CCO)c1nc(Nc2cccc(Cl)c2)c2ncn(C(C)C)c2n1: center range

## Task Input COc1cccc(-c2cc(=O)c3ccccc3o2)c1N ; output its category
## Result bottom range

## Task Band assignment needed for Cc1c2ccncc2c(C)c2c1[nH]c1ccccc12 [ELLIPTECINE] please.
## Result top range

## Task # bin label for CCOC(=O)c1cnc2oc3ccc(O)cc3c2c1-c1ccccc1
## Result center range

## Task Class? Entry: Cn1cnc2c(NCc3ccccc3)nc(NCCO)nc21 [OLOMOUCINE]
## Result bottom range

## Task Sort into band: CN1CCc2[nH]c(=S)c(C#N)c(-c3cccs3)c2C1
## Result top range

## Task Please report the category associated with CC(C)n1cnc2/c(=N/c3cccc(Cl)c3)nc(NCCO)[nH]c21 , nothing else.
## Result center range

## Task Determine which band this compound sits in: O=C1Nc2cc(Br)ccc2/C1=C1/Nc2ccccc2/C1=N\O
## Result top range

## Task Record CCOc1ccc(/C=C2/SC(=O)N(CCN)C2=O)cc1 [HIAZOLIDINEDIONE1] — which class?
## Result bottom range

## Task For the record O=C1Nc2ccccc2/C1=C\c1ccc[nH]1 , report the class its ΔTm corresponds to.
## Result top range

## Task Which ΔTm band matches O=C1Cc2c([nH]c3ccc(Br)cc23)-c2ccccc2N1 [KENPAULLONE] ?
## Result center range

* * *

Reported ΔTm for target or system Cyclin-dependent kinase 6 (Homo sapiens), by entry.
Record the value in °C, omitting the unit from your answer.

Sample records with ΔTm:
* O=C(Nc1cccc(Nc2nccc(Nc3cccc(C(F)(F)F)c3)n2)c1)C1CC1 | 0.8
* CC(C)N(CCO)c1nc(Nc2cccc(Cl)c2)c2ncn(C(C)C)c2n1 | 0.2
* O=S(=O)(NCCNC/C=C/c1ccc(Br)cc1)c1cccc2cnccc12 | -0.4
* CN(C)CCCn1cc(C2=C(c3c[nH]c4ccccc34)C(=O)NC2=O)c2ccccc21 | 0.4
* CC(C)(C)c1cc(C=C2C(=O)C=CC2=O)cc(C(C)(C)C)c1O | -6.6

## Task Tell us which ΔTm value is on record for N=C(N)NCCNS(=O)(=O)c1cccc2cnccc12
## Result 0

## Task Give ΔTm for the following compound: COc1cc(/C=C/C(=O)CC(=O)/C=C/c2ccc(O)c(OC)c2)ccc1O
## Result 2.1

## Task Tell me ΔTm reported for Cn1cnc2c(NCc3ccccc3)nc(NCCO)nc21
## Result 0

## Task State, in one line, measured ΔTm of C[S+]([O-])c1ccc(-c2nc(-c3ccc(F)cc3)c(-c3ccncc3)[nH]2)cc1 (stereo not drawn)
## Result -0.1

## Task Tell us which ΔTm value is on record for CN(C)C[C@@H]1CCn2cc(c3ccccc32)C2=C(C(=O)NC2=O)c2cn(c3ccccc23)CCO1
## Result 0.5

* * *

The next entries give measured ΔTm for Serine/threonine-protein kinase Nek2 (Homo sapiens).
Your reply should be a number followed by the unit it is expressed in.

• COc1cc(O)c2c(c1)oc(=O)c1c3cc(O)c(O)cc3oc21 [WEDELOLACTONE] = 2 °C

## Task Answer with reported ΔTm of CN(C)c1ncnc2nc[nH]c12 [DIMETHYLADENINE]
## Result 0.8 °C

## Task Give the value of ΔTm reported for the following: Cc1cc(Nc2nc(-c3ccccc3)nc3ccccc23)n[nH]1
## Result 3 °C

## Task Answer with reported ΔTm of O=C1Nc2ccc(S(=O)(=O)O)cc2/C1=C1/Nc2ccccc2/C1=N\O
## Result 3.5 °C
